biological target: PAR2 (HT-29 cells, SLIGKV activation) (Homo sapiens, UniProt P55085); construct: host or cells: HT-29 cells; assay: Ca FLIPR TETRA assay, ANTAGONIST mode, stimulation with 8 μM SLIGKV; type: cell-based; settings: HT-29 cells, stimulation with 8 μM SLIGKV
Sequence (P55085 26-397): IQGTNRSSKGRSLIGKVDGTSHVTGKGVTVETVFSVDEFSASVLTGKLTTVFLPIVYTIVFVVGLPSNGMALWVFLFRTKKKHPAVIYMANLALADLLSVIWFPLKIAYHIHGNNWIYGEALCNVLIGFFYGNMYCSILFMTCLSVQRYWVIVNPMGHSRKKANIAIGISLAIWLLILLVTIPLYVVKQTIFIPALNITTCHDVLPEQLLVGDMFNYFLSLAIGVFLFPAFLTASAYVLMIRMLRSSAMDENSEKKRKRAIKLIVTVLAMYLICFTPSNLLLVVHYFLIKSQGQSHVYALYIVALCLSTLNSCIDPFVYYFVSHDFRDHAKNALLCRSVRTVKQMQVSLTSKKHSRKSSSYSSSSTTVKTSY
Reported values of IC50 for individual entries
Report only the number, with the unit nM understood.

// known answers, use as guide
Exercise: Returns the measured IC50 for the input compound. Input: CC1(C)C(=O)NCCN1C(=O)c1cn2nc(-c3ccc(F)cc3)cc(C(F)(F)F)c2n1 [Compound I-35]
Key: 23

Exercise: Returns the measured IC50 for the input compound. Input: CCOC1CCN(C(=O)c2cn3nc(-c4ccc(F)cc4)cc(C)c3n2)CC1 [Compound I-62]
Key: 7400

Exercise: Returns the measured IC50 for the input compound. Input: CC(C)c1cc(-c2ccc(F)cc2)nn2cc(C(=O)N3CCN(C(=O)C4(O)CCC4)CC3(C)C)nc12 [Compound I-19]
Key: 25

Continuing:
Exercise: Returns the measured IC50 for the input compound. Input: CC(C)c1cc(-c2ccc(F)cc2)nn2cc(C(=O)N3CCN(C(=O)C4(NC(=O)OC(C)(C)C)CC4)[C@@H](C)C3)nc12 [Compound I-148]
Key: 52

Exercise: Returns the measured IC50 for the input compound. Input: O=C(c1cn2nc(-c3ccc(F)cc3)cc(C(F)(F)F)c2n1)N1CCCCC1c1ccccc1 (stereo not shown) [Compound I-71]
Key: 950

Exercise: Returns the measured IC50 for the input compound. Input: CCc1cc(-c2ccc(F)cc2)nn2cc(C(=O)N3CCN(C(=O)OC(C)(C)C)[C@@H](C)C3)nc12 [Compound I-3]
Key: 160

Exercise: Returns the measured IC50 for the input compound. Input: CC(C)c1cc(-c2ccc(F)cc2)nn2cc(C(=O)N3CCN(C(=O)[C@H]4CCC(=O)N4)CC3(C)C)nc12 [Compound I-177]
Key: 48

Origin of the recorded values: patent US20190119282A1
